System: T24 human bladder carcinoma cells
method_notes: Cytotoxicity, T24 cells
Type: cell-based
conditions_used: mean ± SEM for 3 experiments
pIC50: −log10 of the molar value.
Outcome label depends on pIC50 relative to 5: at/above gives label 1, below gives label 0.

(Q) Can COc1ccc(CCc2cn(Cc3ccccc3)c3nc(N)nc(C)c23)cc1 [Compound 2] be said to have pIC50 at or above 5?
(A) label 0

(Q) Please tell me: is the compound COc1cccc(CCc2cn(Cc3ccccc3)c3nc(N)nc(C)c23)c1 [Compound 3] at or over 5 in terms of pIC50?
(A) label 0

(Q) Test whether the compound COc1ccccc1CCc1cn(Cc2ccccc2)c2nc(N)nc(C)c12 [Compound 4] records pIC50 of 5 or higher.
(A) label 1

(Q) Determine whether measured pIC50 meets or exceeds 5 for COc1cc(CCc2cn(Cc3ccccc3)c3nc(N)nc(C)c23)cc(OC)c1OC [Compound 1]
(A) label 1

====

Test system: MCF-7 cells
method_notes: Cytotoxicity, drug-sensitive MCF-7 cells
conditions_used: read-out: drug sensitivity (IC50), MCF-7; Table 4; mean ± SEM for 3 experiments
endpoint: IC50 (µM)
Please reply with the bare figure in µM and do not write the unit itself.

Value sought: IC50, system MCF-7 cells, item COc1cc(CCc2cn(Cc3ccccc3)c3nc(N)nc(C)c23)cc(OC)c1OC . Result: 0.28

With MCF-7 cells as the test system, N.N.[Cl][Pt][Cl] [Cisplatin, cisplatin, reference compound] showed IC50 of 11.5

====

System: MCF-7 cells
method_notes: Cytotoxicity, drug-sensitive MCF-7 cells
conditions_used: read-out: Cytotoxicity IC50, MCF-7; mean ± SEM for 3 experiments
endpoint: IC50 (µM)
Give a bare numeral; the unit µM is implied.

Quick note, IC50 for COc1cc(CCc2cn(Cc3ccccc3)c3nc(N)nc(C)c23)cc(OC)c1OC [Compound 1] landed at 0.3

What the record says about COc1cccc(CCc2cn(Cc3ccccc3)c3nc(N)nc(C)c23)c1 [Compound 3] : IC50 is 8

// recorded IC50 for COc1ccccc1CCc1cn(Cc2ccccc2)c2nc(N)nc(C)c12 [Compound 4] : 2.3

Reported IC50 ( COc1ccc(CCc2cn(Cc3ccccc3)c3nc(N)nc(C)c23)cc1 [Compound 2] ) = 13

The compound Cc1nc(N)nc2c1c(CCc1ccccc1)cn2Cc1ccccc1 [Compound 5] showed IC50 equal to 10.7

====

Give pIC50 for every item shown.
System: MCF-7/VP cells
method_notes: Cytotoxicity, MCF-7/VP cells that overexpress MRP1
conditions_used: read-out: drug sensitivity (IC50), MCF-7/VP; Table 4; MRP1 overexpressing; mean ± SEM for 3 experiments
Expect pIC50 as a plain number equal to -log10 of the molar concentration.

Short answer for N.N.[Cl][Pt][Cl] [Cisplatin, cisplatin, reference compound] : pIC50 was 5.15

Record COc1cc(CCc2cn(Cc3ccccc3)c3nc(N)nc(C)c23)cc(OC)c1OC [Compound 1] , field pIC50: 6.74

====

Exercise: state measured Resistance (MCF-7/VP relative to MCF-7) for each of the compounds provided.
Tested on: MCF-7/VP cells
method_notes: Cytotoxicity, MCF-7/VP cells that overexpress MRP1
conditions_used: MRP1
Enter a number only.

Value of Resistance (MCF-7/VP relative to MCF-7) reported for the compound N.N.[Cl][Pt][Cl] [Cisplatin, cisplatin, reference compound] is 0.6

Lookup result for CC[C@]1(O)C[C@@H]2CN(CCc3c([nH]c4ccccc34)[C@@](C(=O)OC)(c3cc4c(cc3OC)N(C)[C@H]3[C@@](O)(C(=O)OC)[C@H](OC(C)=O)[C@]5(CC)C=CCN6CC[C@]43[C@@H]65)C2)C1 ; measured Resistance (MCF-7/VP relative to MCF-7): 1.1

Looking up COc1cc(CCc2cn(Cc3ccccc3)c3nc(N)nc(C)c23)cc(OC)c1OC , I see its Resistance (MCF-7/VP relative to MCF-7) listed as 0.6

Looking up CC[C@]1(O)C[C@H]2CN(CCc3c([nH]c4ccccc34)[C@@](C(=O)OC)(c3cc4c(cc3OC)N(C=O)[C@H]3[C@@](O)(C(=O)OC)[C@H](OC(C)=O)[C@]5(CC)C=CCN6CC[C@]43[C@@H]65)C2)C1 [Vincristine, vincristine, reference compound] , I found its Resistance (MCF-7/VP relative to MCF-7) recorded as 15.5

# Resistance (MCF-7/VP relative to MCF-7) of CC(=O)O[C@H]1C(=O)[C@@]2(C)[C@H]([C@H](OC(=O)c3ccccc3)[C@]3(O)C[C@H](OC(=O)[C@H](O)[C@@H](NC(=O)c4ccccc4)c4ccccc4)C(C)=C1C3(C)C)[C@]1(OC(C)=O)CO[C@@H]1C[C@@H]2O = 1.1
